B1: Double-stranded RNA-binding protein Staufen homolog 1, residues 183 to 249; numbered along this chain, O95793 (parent)
chain: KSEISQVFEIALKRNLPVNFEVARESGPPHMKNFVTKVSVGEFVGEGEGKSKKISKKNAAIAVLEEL

variants of: B1; assay: abundance fitness (aPCA) (normalised: wild type 0, dead -1); higher = more abundant; growth selection in yeast, the domain comes from the species named; conditions: Homo sapiens
Classify as follows. Reported abundance fitness greater than or equal to -0.4: yes. Reported abundance fitness below: no.

{"RESIDUE CHANGE": "L67F", "CLASS NAME": "yes"}
{"RESIDUE CHANGE": "N58W", "CLASS NAME": "no"}
{"RESIDUE CHANGE": "A59Y", "CLASS NAME": "no"}
{"RESIDUE CHANGE": "S26T", "CLASS NAME": "yes"}
{"RESIDUE CHANGE": "L64W", "CLASS NAME": "no"}
{"RESIDUE CHANGE": "E9Y", "CLASS NAME": "yes"}
{"RESIDUE CHANGE": "I54R", "CLASS NAME": "yes"}
{"RESIDUE CHANGE": "N58E", "CLASS NAME": "yes"}
{"RESIDUE CHANGE": "F43N", "CLASS NAME": "no"}
{"RESIDUE CHANGE": "G45C", "CLASS NAME": "yes"}
{"RESIDUE CHANGE": "E25V", "CLASS NAME": "yes"}
{"RESIDUE CHANGE": "V22R", "CLASS NAME": "yes"}
{"RESIDUE CHANGE": "P17C", "CLASS NAME": "no"}
{"RESIDUE CHANGE": "P29C", "CLASS NAME": "yes"}
{"RESIDUE CHANGE": "K53I", "CLASS NAME": "yes"}
{"RESIDUE CHANGE": "N33L", "CLASS NAME": "yes"}
{"RESIDUE CHANGE": "E21I", "CLASS NAME": "yes"}
{"RESIDUE CHANGE": "V7L", "CLASS NAME": "yes"}
{"RESIDUE CHANGE": "N15R", "CLASS NAME": "yes"}
{"RESIDUE CHANGE": "K52T", "CLASS NAME": "no"}
{"RESIDUE CHANGE": "K57L", "CLASS NAME": "yes"}
{"RESIDUE CHANGE": "N15F", "CLASS NAME": "no"}
{"RESIDUE CHANGE": "K53H", "CLASS NAME": "yes"}
{"RESIDUE CHANGE": "N58P", "CLASS NAME": "no"}
{"RESIDUE CHANGE": "K56C", "CLASS NAME": "no"}
{"RESIDUE CHANGE": "S2W", "CLASS NAME": "no"}
{"RESIDUE CHANGE": "G49L", "CLASS NAME": "no"}
{"RESIDUE CHANGE": "L67W", "CLASS NAME": "no"}
{"RESIDUE CHANGE": "L67I", "CLASS NAME": "yes"}
{"RESIDUE CHANGE": "P28S", "CLASS NAME": "yes"}
{"RESIDUE CHANGE": "K50E", "CLASS NAME": "yes"}
{"RESIDUE CHANGE": "V38S", "CLASS NAME": "no"}
{"RESIDUE CHANGE": "N15E", "CLASS NAME": "yes"}
{"RESIDUE CHANGE": "K52G", "CLASS NAME": "no"}
{"RESIDUE CHANGE": "L67S", "CLASS NAME": "no"}
{"RESIDUE CHANGE": "N19P", "CLASS NAME": "no"}
{"RESIDUE CHANGE": "K32W", "CLASS NAME": "no"}
{"RESIDUE CHANGE": "S39A", "CLASS NAME": "yes"}
{"RESIDUE CHANGE": "S51Q", "CLASS NAME": "no"}
{"RESIDUE CHANGE": "G27Q", "CLASS NAME": "yes"}
{"RESIDUE CHANGE": "L64Y", "CLASS NAME": "no"}
{"RESIDUE CHANGE": "E25G", "CLASS NAME": "yes"}
{"RESIDUE CHANGE": "V7E", "CLASS NAME": "no"}
{"RESIDUE CHANGE": "G41C", "CLASS NAME": "no"}
{"RESIDUE CHANGE": "I4R", "CLASS NAME": "no"}
{"RESIDUE CHANGE": "L12I", "CLASS NAME": "yes"}
